molecular target: CDK6 (Homo sapiens, UniProt Q00534); construct: endogenous in cells; test: CDK6 degradation (DC50, Dmax); format: cell-based
Sequence (Q00534 whole entry): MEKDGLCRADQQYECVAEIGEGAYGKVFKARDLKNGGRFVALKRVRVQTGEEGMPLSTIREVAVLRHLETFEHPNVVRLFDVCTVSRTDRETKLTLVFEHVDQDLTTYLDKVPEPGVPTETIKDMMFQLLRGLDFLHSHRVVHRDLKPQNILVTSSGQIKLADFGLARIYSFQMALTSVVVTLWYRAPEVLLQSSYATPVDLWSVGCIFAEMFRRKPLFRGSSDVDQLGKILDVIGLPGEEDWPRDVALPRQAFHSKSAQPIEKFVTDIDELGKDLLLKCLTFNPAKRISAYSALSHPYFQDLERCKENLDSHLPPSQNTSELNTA
test_readout: Dmax

Cc1nc2c(F)cc(-c3nc(Nc4ccc(CN5CCN(C6CCN(c7ccc(C(=O)NC8CCC(=O)NC8=O)cc7)CC6)CC5)cn4)ncc3F)cc2n1C(C)C (centres unmarked) :: > 80%
Cc1nc2c(F)cc(-c3nc(Nc4ccc(CN5CCN(CCNc6ccc7c(c6)C(=O)N(C6CCC(=O)NC6=O)C7)CC5)cn4)ncc3F)cc2n1C(C)C (centres unmarked) :: > 80%
CC(=O)c1c(C)c2cnc(Nc3ccc(N4CCN(C(=O)N5CCN(CCN6CCN(c7ccc8c(c7)C(=O)N(C7CCC(=O)NC7=O)C8=O)CC6)CC5)CC4)cn3)nc2n(C2CCCC2)c1=O (centres unmarked) :: > 60%
CC(=O)c1c(C)c2cnc(Nc3ccc(N4CCN(C(=O)N5CCN(c6ccc7c(c6)CN(C6CCC(=O)NC6=O)C7=O)CC5)CC4)cn3)nc2n(C2CCCC2)c1=O (centres unmarked) :: > 60%
CC(=O)c1c(C)c2cnc(Nc3ccc(C4CCN(C(=O)C5CN(c6ccc7c(c6)C(=O)N(C6CCC(=O)NC6=O)C7=O)C5)CC4)cn3)nc2n(C2CCCC2)c1=O (centres unmarked) :: > 80%

Request - read-out Dmax | tested on CDK6 (Homo sapiens, UniProt Q00534) | compound CC(=O)c1c(C)c2cnc(Nc3ccc(C4CCN(CC5CN(c6ccc7c(c6)C(=O)N(C6CCC(=O)NC6=O)C7=O)C5)CC4)cn3)nc2n(C2CCCC2)c1=O (centres unmarked)
> 80%

---

target: CDK4 (Homo sapiens, UniProt P11802); construct: endogenous in cells; assay: CDK4 degradation (DC50, Dmax); type: cell-based
Sequence (P11802 whole entry): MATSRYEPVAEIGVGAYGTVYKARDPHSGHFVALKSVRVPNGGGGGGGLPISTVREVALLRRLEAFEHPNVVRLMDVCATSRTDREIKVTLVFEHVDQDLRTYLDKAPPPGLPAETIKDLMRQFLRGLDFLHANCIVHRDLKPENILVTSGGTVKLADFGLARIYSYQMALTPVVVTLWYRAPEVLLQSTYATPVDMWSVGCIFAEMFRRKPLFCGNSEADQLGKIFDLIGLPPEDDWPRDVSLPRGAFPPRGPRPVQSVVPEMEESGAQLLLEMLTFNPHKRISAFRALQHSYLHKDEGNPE
# maps each entry to its DC50

The cases that follow already have their DC50 on record.
CC(=O)c1c(C)c2cnc(Nc3ccc(N4CCN(C(=O)N5CCN(CCN6CCC(c7ccc8c(c7)CN(C7CCC(=O)NC7=O)C8=O)CC6)CC5)CC4)cn3)nc2n(C2CCCC2)c1=O (stereo not shown) [Compound 28] :: > 200 nM
Cc1nc2c(F)cc(-c3nc(Nc4ccc(CC5CCN(C(=O)C6CCN(c7ccc(NC8CCC(=O)NC8=O)cc7)CC6)CC5)cn4)ncc3F)cc2n1C(C)C (stereo not shown) [Compound 164] :: 50 to 200 nM
CC(=O)c1c(C)c2cnc(Nc3ccc(N4CCN(CCC5CCN(C(=O)Nc6ccc7c(c6)CN(C6CCC(=O)NC6=O)C7=O)CC5)CC4)cn3)nc2n(C2CCCC2)c1=O (stereo not shown) [Compound 46] :: > 200 nM

// DC50 lookup, key: Cc1nc2c(F)cc(-c3nc(Nc4ccc(CC5CCN(C(=O)C6CN(c7ccc8c(c7)CN(C7CCC(=O)NC7=O)C8=O)C6)CC5)cn4)ncc3F)cc2n1C(C)C (stereo not shown) [Compound 144]
50 to 200 nM

---

target: CDK4 (Homo sapiens, UniProt P11802); construct: endogenous in cells; test: CDK4 degradation (DC50, Dmax); type: cell-based
# maps each entry to its DC50

CC(=O)c1c(C)c2cnc(Nc3ccc(N4CCN(CC5CCN(c6ccc7c(c6)CN(C6CCC(=O)NC6=O)C7=O)CC5)CC4)cn3)nc2n(C2CCCC2)c1=O (stereo not drawn) :: 50 to 200 nM
CC(=O)c1c(C)c2cnc(Nc3ccc(N4CCN(C(=O)N5CCC(C6CCN(c7ccc8c(c7)CN(C7CCC(=O)NC7=O)C8=O)CC6)CC5)CC4)cn3)nc2n(C2CCCC2)c1=O (stereo not drawn) :: > 200 nM

Now consider the entry below.
// DC50 lookup, key: Cc1nc2c(F)cc(-c3nc(Nc4ccc(CN5CCN(C(=O)C6CCN(c7ccc8c(c7)CN(C7CCC(=O)NC7=O)C8=O)CC6)CC5)cn4)ncc3F)cc2n1C(C)C (stereo not drawn)
50 to 200 nM

---

target: CDK4 (Homo sapiens, UniProt P11802); construct: endogenous in cells; assay: CDK4 degradation (DC50, Dmax); assay type: cell-based
test_readout: Dmax

CC(=O)c1c(C)c2cnc(Nc3ccc(N4CCN(CC5CCN(C(=O)N6CCC(c7ccc8c(c7)C(=O)N(C7CCC(=O)NC7=O)C8=O)CC6)CC5)CC4)cn3)nc2n(C2CCCC2)c1=O (stereo not drawn) :: > 60%
Cc1nc2c(F)cc(-c3nc(Nc4ccc(CN5CCN(CCNc6ccc7c(c6)C(=O)N(C6CCC(=O)NC6=O)C7=O)CC5)cn4)ncc3F)cc2n1C(C)C (stereo not drawn) :: > 80%

Now consider the entry below.
// Dmax lookup, key: CC(=O)c1c(C)c2cnc(Nc3ccc(N4CCN(CCN(C)c5ccc6c(c5)C(=O)N(C5CCC(=O)NC5=O)C6=O)CC4)cn3)nc2n(C2CCCC2)c1=O (stereo not drawn)
> 60%

---

target: CDK6 (Homo sapiens, UniProt Q00534); construct: endogenous in cells; assay: CDK6 degradation (DC50, Dmax); type: cell-based
test_readout: DC50

The cases that follow already have their DC50 on record.
CC(=O)c1c(C)c2cnc(Nc3ccc(N4CCN(C(=O)N5CCN(c6ccc7c(c6)C(=O)N(C6CCC(=O)NC6=O)C7=O)CC5)CC4)cn3)nc2n(C2CCCC2)c1=O (centres unmarked) [Compound 1] :: < 50 nM
CC(=O)c1c(C)c2cnc(Nc3ccc(N4CCN(C(=O)C5CCN(c6ccc(C(=O)NC7CCC(=O)NC7=O)cc6)CC5)CC4)cn3)nc2n(C2CCCC2)c1=O (centres unmarked) [Compound 116] :: 50 to 200 nM
CC(=O)c1c(C)c2cnc(Nc3ccc(N4CCN(C(=O)N5CCC(CCC6CCN(c7ccc8c(c7)C(=O)N(C7CCC(=O)NC7=O)C8=O)CC6)CC5)CC4)cn3)nc2n(C2CCCC2)c1=O (centres unmarked) [Compound 25] :: 50 to 200 nM
CC(=O)c1c(C)c2cnc(Nc3ccc(C4CCN(CC5CN(c6ccc(NC7CCC(=O)NC7=O)cc6)C5)CC4)cn3)nc2n(C2CCCC2)c1=O (centres unmarked) [Compound 128] :: < 50 nM
CC(=O)c1c(C)c2cnc(Nc3ccc(N4CCN(CC5CCN(C(=O)Nc6ccc7c(c6)C(=O)N(C6CCC(=O)NC6=O)C7=O)CC5)CC4)cn3)nc2n(C2CCCC2)c1=O (centres unmarked) [Compound 41] :: 50 to 200 nM
CC(=O)c1c(C)c2cnc(Nc3ccc(C4CCN(CC5CN(c6ccc7c(c6)C(=O)N(C6CCC(=O)NC6=O)C7=O)C5)CC4)cn3)nc2n(C2CCCC2)c1=O (centres unmarked) [Compound 125] :: < 50 nM
Cc1nc2c(F)cc(-c3nc(Nc4ccc(CN5CCN(CCCNc6ccc(N7CCC(=O)NC7=O)cc6)CC5)cn4)ncc3F)cc2n1C(C)C [Compound 107] :: < 50 nM

// DC50 lookup, key: CC(=O)c1c(C)c2cnc(Nc3ccc(N4CCN(C(=O)N5CCC(CCC6CCN(c7ccc8c(c7)CN(C7CCC(=O)NC7=O)C8=O)CC6)CC5)CC4)cn3)nc2n(C2CCCC2)c1=O (centres unmarked) [Compound 26]
> 200 nM

---

target: CDK6 (Homo sapiens); construct: endogenous in cells; assay: CDK6 degradation (DC50, Dmax); format: cell-based
test_readout: Dmax

// Dmax lookup, key: CC(=O)c1c(C)c2cnc(Nc3ccc(N4CCN(C(=O)N5CCC(CN6CCC(c7ccc8c(c7)CN(C7CCC(=O)NC7=O)C8=O)CC6)CC5)CC4)cn3)nc2n(C2CCCC2)c1=O (centres unmarked)
> 50%

Quick one: CC(=O)c1c(C)c2cnc(Nc3ccc(N4CCN(C(=O)N5CCC(CN6CCN(c7ccc8c(c7)CN(C7CCC(=O)NC7=O)C8=O)CC6)CC5)CC4)cn3)nc2n(C2CCCC2)c1=O (centres unmarked)
> 60%

---

# maps each entry to its Dmax
target: CDK6 (Homo sapiens); construct: endogenous in cells; experiment: CDK6 degradation (DC50, Dmax); assay type: cell-based

The cases that follow already have their Dmax on record.
Cc1nc2c(F)cc(-c3nc(Nc4ccc(CC5CCN(CC6CCN(c7ccc8c(c7)C(=O)N(C7CCC(=O)NC7=O)C8=O)CC6)CC5)cn4)ncc3F)cc2n1C(C)C (stereo not drawn) [Compound 157] :: > 80%
Cc1nc2c(F)cc(-c3nc(Nc4ccc(CC5CCN(C(=O)C6CN(c7ccc8c(c7)CN(C7CCC(=O)NC7=O)C8=O)C6)CC5)cn4)ncc3F)cc2n1C(C)C (stereo not drawn) [Compound 144] :: > 80%
CC(=O)c1c(C)c2cnc(Nc3ccc(N4CCN(CCN5CCC(c6ccc7c(c6)CN(C6CCC(=O)NC6=O)C7=O)CC5)CC4)cn3)nc2n(C2CCCC2)c1=O (stereo not drawn) [Compound 72] :: > 50%

Now consider the entry below.
// Dmax lookup, key: CC(=O)c1c(C)c2cnc(Nc3ccc(N4CCN(CC5CCN(C(=O)Nc6ccc7c(c6)C(=O)N(C6CCC(=O)NC6=O)C7=O)CC5)CC4)cn3)nc2n(C2CCCC2)c1=O (stereo not drawn) [Compound 41]
> 80%

Cited source for all entries: patent US20230295118A1
